- Tested on: HCT-116 colon
- ASSAY_TEXT: NCI tumour cell line growth inhibition, 48 h
Form field: TGI (one value per entry).

Some solved entries appear below for comparison.
[[record]]
compound = "COC(=O)CNC(=O)CSc1nnc(COc2ccc(Cl)cc2)n1-c1ccccc1"
reading = "> 100 µM"

[[record]]
compound = "CCOC(=O)c1nc2cc(F)cc(F)c2[nH]c1=O"
reading = "> 100 µM"

[[record]]
compound = "CCCCC[C@H]1C/C=C2/C(=O)C(Cl)=C[C@@H]2C/C=C\\CCCC(=O)O1"
reading = "0.57 µM"

[[record]]
compound = "COC1(C)CNCC(C)(C)NC(=O)C(C)(OC)CNCC(C)(C)NC1=O (stereo not given)"
reading = "> 100 µM"


Please examine the following record next.
Q: Data request, read-out TGI, for N[C@H]1CCN(c2c(F)cc3c(=O)c(C(=O)O)cn4c3c2Oc2c-4ccc3c2ccc2ccccc23)C1
Result: > 35.3 µM

----------
Form field: TGI (one value per entry).
- Test system: RXF 393 renal
- ASSAY_TEXT: NCI tumour cell line growth inhibition, 48 h

[[record]]
compound = "N[C@H]1CCN(c2c(F)cc3c(=O)c(C(=O)O)cn4c3c2Oc2c-4ccc3c2ccc2ccccc23)C1"
property_label = "TGI"
reading = "16.6 µM"

[[record]]
compound = "C=CCN1C(=O)CS/C1=N\\NC(=O)CSc1nc2ccccc2c(=O)n1CC"
property_label = "TGI"
reading = "> 100 µM"


Q: Query for RXF 393 renal: what TGI does the record show for COc1ccc(N[C@@H]2c3cc4c(cc3C(c3cc(OC)c(O)c(OC)c3)[C@H]3C(=O)OCC32)OCO4)cc1OC (stereo not given in full) ?
Result: > 26.9 µM

Q: Could you do the same for CC(=N/NC(N)=S)/C(C)=N/NC(N)=S , please?
Result: > 100 µM

Q: Could you do the same for COC(=O)C(=O)C(C(C)=O)C(=O)C(=O)Nc1ccc(C)cc1C (stereo not given) , please?
Result: > 100 µM

Q: Could you do the same for CC(=O)OCC1=CC2CCC3C(C)(CCC[C@]3(C)COC(C)=O)C23CC[C@H]1C3 (stereo not given in full) , please?
Result: 93 µM

----------
Form field: TGI (one value per entry).
- Test system: SNB-19 CNS
- ASSAY_TEXT: NCI tumour cell line growth inhibition, 48 h

[[record]]
molecule = "c1ccc2c(c1)[nH]c1c3ccccc3sc21"
property_label = "TGI"
reading = "> 100 µM"


Q: Data request, read-out TGI, for CCCCCCCCCCCCCCCCCCOCC(O)CO (stereo unspecified)
Result: > 25 µM

Q: Could you do the same for COc1ccc2[nH]c3c(O)c(-c4c(C)cc5c([nH]c6ccc(OC)cc65)c4O)c(C)cc3c2c1 , please?
Result: 8.72 µM

Q: Could you do the same for CC(C)(C)NC(=S)N/N=C/c1ccccn1 , please?
Result: > 100 µM

Q: Could you do the same for C=CCC1C(=O)CC2(C)C(CC=C)C(=O)CC12C (stereo unspecified) , please?
Result: > 100 µM

Q: Could you do the same for O=C(O)c1[nH]c2c([N+](=O)[O-])cc([N+](=O)[O-])cc2c1C(=O)O , please?
Result: > 100 µM

----------
- Tested on: SK-MEL-5 melanoma
- ASSAY_TEXT: NCI tumour cell line growth inhibition, 48 h; in the data active = GI50 below about 0.43 µM; inactive = the rest
Log the outcome using a class from Yes (active), No (inactive)

Recorded results for 3 compounds are shown here.
[[record]]
compound = "CCC(C(=O)[C@@H](C)[C@@H](O)[C@H](C)[C@@H]1O[C@@H]([C@@H](CC)C(=O)ONC(=O)c2ccccc2)CC[C@@H]1C)[C@H]1O[C@]2(C=CC(=O)[C@]3(CC[C@@](C)([C@H]4CC[C@](O)(CC)[C@H](C)O4)O3)O2)[C@H](C)C[C@@H]1C (stereo partly drawn)"
answer_label = "Yes"

[[record]]
compound = "OCC1OC(n2cnc3c(NCc4ccco4)ncnc32)C(O)C1O (stereo not drawn)"
answer_label = "No"

[[record]]
compound = "OCC1OC(n2cnc3c(NCc4ccccc4O)ncnc32)C(O)C1O (stereo not drawn)"
answer_label = "No"


Q: Test call, this compound: CCOC(=O)CCSC1=CC(=O)c2nc3ccccc3c3ccnc1c23
Result: No

Q: Could you do the same for Cc1ccc(C2C3Cc4ccccc4C3=NN2c2ccc(S(=O)(=O)NC(=O)Nc3ccccc3)cc2)cc1 (stereo not drawn) , please?
Result: No

Q: Could you do the same for COc1ccc(NC(=O)c2cccc(C3CCc4c(cc(OC)c(OC)c4OC)O3)c2)cc1 (stereo not drawn) , please?
Result: No

Q: Could you do the same for C1=C\CCCCN2CC[C@H]3[C@H](CCCC/C=C\CCCN4C[C@@H](CCCCC/1)C[C@@H]3C4)C2 , please?
Result: No

Q: Could you do the same for CCOC(=O)c1ccc(NC(=O)c2cccc(NC3=C(Cl)C(=O)N(Cc4ccccc4)C3=O)c2)cc1 , please?
Result: No

----------
Form field: TGI (one value per entry).
- Tested on: SK-MEL-28 melanoma
- ASSAY_TEXT: NCI tumour cell line growth inhibition, 48 h
Answer in µM, number only, no unit symbol.

Some solved entries appear below for comparison.
[[record]]
molecule = "O=C(c1ccc(Nc2nccc(NCCCCNc3ccnc4cc(Cl)ccc34)n2)cc1)N1CCCCC1"
property_label = "TGI"
reading = 4.67

[[record]]
molecule = "CC(=O)/C=C/c1ccc(N(CCO)Cc2ccc(C(C)(C)C)cc2)cc1"
property_label = "TGI"
reading = 201

[[record]]
molecule = "C1=C\\CCCCN2CC[C@H]3[C@H](CCCC/C=C\\CCCN4C[C@@H](CCCCC/1)C[C@@H]3C4)C2"
property_label = "TGI"
reading = 3.35


Please examine the following record next.
Q: Query for SK-MEL-28 melanoma: what TGI does the record show for C=CCN1C(=O)[C@]2(SC1=S)[C@H](c1cccc(Cl)c1)CN(C)[C@]21C(=O)NC2C=CC(Cl)=C[C@H]21 (some centres undefined) ?
Result: 27.8

----------
Form field: TGI (one value per entry).
- Tested on: SN12C renal
- ASSAY_TEXT: NCI tumour cell line growth inhibition, 48 h
Answer in µM, number only, no unit symbol.

[[record]]
molecule = "C=C1C(=O)O[C@H]2[C@H]1CC/C(COC(=O)N[C@H](Cc1c[nH]c3ccccc13)C(=O)OC)=C\\CC[C@@]1(C)O[C@@H]21"
property_label = "TGI"
reading = 5.69

[[record]]
molecule = "CC1OC(CC2C=CCc3c(O)c4c(c(O)c32)C(=O)c2ccccc2C4=O)CC(NC(=O)C(F)(F)F)C1O (stereo not drawn)"
property_label = "TGI"
reading = 18.2

[[record]]
molecule = "Cc1ccc(O)c(C(c2cc(C)ccc2O)c2cc([N+](=O)[O-])ccc2O)c1"
property_label = "TGI"
reading = 28.3

[[record]]
molecule = "Cc1ccc(NC2=CC(=O)C(=O)c3ccccc32)cc1"
property_label = "TGI"
reading = 3.32

[[record]]
molecule = "Nc1cc(N)c2nc(-c3ccccc3)c(NCc3ccc(Cl)c(Cl)c3)nc2c1"
property_label = "TGI"
reading = 24

[[record]]
molecule = "CCC(C(=O)[C@@H](C)[C@@H](O)[C@H](C)[C@@H]1O[C@@H]([C@@H](CC)C(=O)ONC(=O)c2ccccc2)CC[C@@H]1C)[C@H]1O[C@]2(C=CC(=O)[C@]3(CC[C@@](C)([C@H]4CC[C@](O)(CC)[C@H](C)O4)O3)O2)[C@H](C)C[C@@H]1C (stereo partly drawn)"
property_label = "TGI"
reading = 1.49


Q: Data request, read-out TGI, for C1=C\CCCCN2CC[C@H]3[C@H](CCCC/C=C\CCCN4C[C@@H](CCCCC/1)C[C@@H]3C4)C2
Result: 23.9

Q: Could you do the same for COc1ccc2c(c1)C(=O)c1c-2n(CCCCl)c(=O)c2cc(N)ccc12 , please?
Result: 97.4

----------
- System: BT-549 breast
- ASSAY_TEXT: NCI tumour cell line growth inhibition, 48 h; in the data active = GI50 below about 0.43 µM; inactive = the rest
Log the outcome using a class from active, inactive

Recorded results for 4 compounds are shown here.
[[record]]
compound = "COc1ccc(-c2nnc(Nc3nc(O)c(C4=c5cc(Br)ccc5=NC4=O)s3)o2)cc1"
test_system = "BT-549 breast"
answer_label = "inactive"

[[record]]
compound = "O=C(COc1cccc(/C=C2\\Oc3ccc4ccccc4c3C2=O)c1)c1ccc([N+](=O)[O-])cc1"
test_system = "BT-549 breast"
answer_label = "inactive"

[[record]]
compound = "CCOC(=O)CCSC1=CC(=O)c2nc3ccccc3c3ccnc1c23"
test_system = "BT-549 breast"
answer_label = "inactive"

[[record]]
compound = "CCOC(=O)c1cc(C(=O)c2cc(OC)c(OC)c(OC)c2)n2ccc(-c3cc[n+](CC(=O)c4cc(OC)c(OC)c(OC)c4)cc3)cc12"
test_system = "BT-549 breast"
answer_label = "inactive"


Next item in the queue.
Q: Test call, this compound: OCC1OC(n2cnc3c(NCc4ccco4)ncnc32)C(O)C1O (stereo not given)
Result: active

All figures here come from PubChem BioAssay (NCI).
